# Tested on: ERBB4
# conditionSet: concentration: 1 μM, replicates: in singlicate; n = 1;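 note: KINOMEscan kinase panel screen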
Measured %Inh values are reported for all entries that follow.
Note: unit % is implicit; provide only the numeric part.

>  <compound>
COC(=O)c1cccc(NC(=O)NC2CCN(c3ccnc(Nc4ccc(F)cc4)n3)C2)c1 (centres unmarked)

>  <targetDesc>
ERBB4

>  <observed>
0

$$$$
>  <compound>
COc1cccc(C2=C(Nc3cc(Cl)c(O)c(Cl)c3)C(=O)NC2=O)c1

>  <targetDesc>
ERBB4

>  <observed>
4

$$$$
>  <compound>
O=c1cc(N2CCOCC2)nc2n(Cc3ccccc3F)ccn12

>  <targetDesc>
ERBB4

>  <observed>
0

$$$$
>  <compound>
COc1ccc(CSc2nnc(-c3ccc4ncsc4c3)o2)cc1C(F)(F)F

>  <targetDesc>
ERBB4

>  <observed>
0

$$$$
>  <compound>
COc1ccc(Nc2nccc(-c3ccc(NC(=O)c4cc5cc(F)ccc5[nH]4)cc3)n2)cc1

>  <targetDesc>
ERBB4

>  <observed>
6

$$$$
>  <compound>
O=C(Nc1n[nH]c2nc(-c3cccs3)c(Br)cc12)C1CCCC1

>  <targetDesc>
ERBB4

>  <observed>
0

$$$$
>  <compound>
COc1cc2ncnc(Nc3cccc(Br)c3)c2cc1OC.Cl

>  <targetDesc>
ERBB4

>  <observed>
72

$$$$
>  <compound>
FC(F)(F)c1ccccc1-c1cc(-c2c[nH]nc2-c2ccccn2)ccn1

>  <targetDesc>
ERBB4

>  <observed>
0

$$$$

Form: Entry = COc1ccc(Nc2nccc(N3CCC(NC(=O)c4cc5ccccc5s4)C3)n2)cc1 (centres unmarked) | System = ERBB4 | %Inh = ____ 0

`CCc1ccc(-c2ccc3c(c2)-c2n[nH]cc2S(=O)(=O)N3C)cc1` ? 0

`O=C1NC(=O)C(c2ccc(Cl)cc2)=C1Nc1cccc(Cl)c1` ? 0

----------
# System: EPHA7
# conditionSet: concentration: 1 μM, replicates: in singlicate; n = 1
outcomeMeasure: %Inh (%)
Note: unit % is implicit; provide only the numeric part.

Use the examples below as a reference point.
>  <compound>
FC(F)(F)c1ccccc1-c1cc(-c2c[nH]nc2-c2ccccn2)ccn1

>  <targetDesc>
EPHA7

>  <unitTag>
%

>  <observed>
6

$$$$
>  <compound>
COC(=O)C(Cc1ccccc1)NC(=O)NC1CCN(c2ccnc(Nc3ccc(F)cc3)n2)C1 (centres unmarked)

>  <targetDesc>
EPHA7

>  <unitTag>
%

>  <observed>
2

$$$$
>  <compound>
NS(=O)(=O)c1cccc(N/C=C2\C(=O)Nc3ccc(S(=O)(=O)Cc4c(Cl)cccc4Cl)cc32)c1

>  <targetDesc>
EPHA7

>  <unitTag>
%

>  <observed>
8

$$$$

Given `Nc1ncnc2occ(-c3ccc4c(c3)CCN4C(=O)Cc3cc(F)ccc3F)c12` , state its recorded %Inh. 0

COC(=O)c1cccc(NC(=O)NC2CCN(c3ccnc(Nc4ccc(F)cc4)n3)C2)c1 (centres unmarked) ? 0

----------
# Test system: EPHB4
# conditionSet: concentration: 1 μM, replicates: in singlicate; n = 1
Decide using %Inh: a value greater than or equal to 4% is MET, a smaller one is NOT MET.

>  <molecule>
CNCc1ccc2nc(NC(=O)c3ccc(C(C)(C)C)cc3)cn2c1

>  <assignedLabel>
NOT MET

$$$$
>  <molecule>
COC(=O)c1cccc(NC(=O)NC2CCN(c3ccnc(Nc4ccc(F)cc4)n3)C2)c1 (stereo not shown)

>  <assignedLabel>
NOT MET

$$$$
>  <molecule>
Cl.Cl.Cl.N#Cc1ccc(CCNc2nccc(-c3cccc(CN4CCNCC4)c3)n2)cc1

>  <assignedLabel>
MET

$$$$

Test whether the molecule `Fc1ccc(-c2nn3cccc(F)c3c2-c2ccncc2)cc1` records %Inh of 4% or higher. MET

COc1cccc(CNC(=O)NC2CCN(c3ccnc(Nc4ccc(F)cc4)n3)C2)c1 (stereo not shown) ? NOT MET

`O=C(Nc1n[nH]c2nc(-c3cccs3)c(Br)cc12)C1CC1` ? NOT MET

----------
# Tested on: MARK4
# conditionSet: concentration: 1 μM, replicates: in singlicate; n = 1
Measured %Inh values are reported for all entries that follow.
Note: unit % is implicit; provide only the numeric part.

>  <compound>
Cc1c(Cn2c3ccccc3n3c(=O)cc(N4CCOCC4)nc23)cccc1C(F)(F)F [GSK2306394]

>  <observed>
0

$$$$

Given COc1ccc2cc(-c3nc(-c4ccccc4C(C)C)[nH]c3-c3ccncc3)ccc2c1 [SB-660566] , state its recorded %Inh. 3

c1ccc(-c2ccnc3[nH]ccc23)cc1 [SB-693578] ? 62

----------
# Test system: YANK2
# Construct: gene STK32B
# conditionSet: concentration: 1 μM, replicates: in singlicate; n = 1
outcomeMeasure: %Inh (%)
Note: unit % is implicit; provide only the numeric part.

Use the examples below as a reference point.
>  <compound>
CS(=O)(=O)CCNCc1nc(-c2ccc3ncnc(Nc4ccc(OCc5ccccc5)c(Cl)c4)c3c2)cs1.Cl

>  <observed>
0

$$$$
>  <compound>
Cc1ccc(NC(=O)Nc2ccccc2)cc1-c1ccc(C(=O)Nc2ccncc2)cc1

>  <observed>
5

$$$$
>  <compound>
CS(=O)(=O)CCNCc1nc(-c2ccc3ncnc(Nc4ccc5c(cnn5Cc5ccccc5)c4)c3c2)cs1.Cl.Cl

>  <observed>
0

$$$$
>  <compound>
CN1c2ccc(-c3ccc(C(N)=O)cc3)cc2-c2[nH]ncc2S1(=O)=O

>  <observed>
0

$$$$
>  <compound>
CC(=O)c1c(C)c2cnc(Nc3ccc(N4CCNCC4)cn3)nc2n(C2CCCC2)c1=O

>  <observed>
0

$$$$

Given `CC[C@@H]1CO[C@H](C(=O)Nc2ccccc2)CN1c1cc(-c2ccc3c(N)n[nH]c3c2)nc(NC)n1` , state its recorded %Inh. 77

`COc1nccc(-c2c(-c3ccc(F)cc3)ncn2CCCN2CCOCC2)n1` ? 0

`COc1ccc(CSc2nnc(-c3ccc4c(c3)CCO4)o2)cc1` ? 0

----------
Measured %Inh values are reported for all entries that follow.
# Test system: PKN2
# conditionSet: concentration: 1 μM, replicates: in singlicate; n = 1
Note: unit % is implicit; provide only the numeric part.

Use the examples below as a reference point.
>  <molecule>
COc1cccc(C2=C(Nc3cc(Cl)c(O)c(Cl)c3)C(=O)NC2=O)c1 [SB-390767]

>  <%Inh, %>
0

$$$$
>  <molecule>
Cc1ccc(NC(=O)c2ccc(Cl)cc2)cc1-c1ccc(C(=O)Nc2ccncc2)cc1 [GSK1398467]

>  <%Inh, %>
0

$$$$
>  <molecule>
Cc1ccc(NC(=O)Nc2ccc(Cl)cc2)cc1-c1ccc(C(=O)Nc2ccncc2)cc1 [GSK1398472]

>  <%Inh, %>
0

$$$$
>  <molecule>
CSc1ccc(-c2nc3n(c2-c2ccncc2)CCC3)cc1 [SKF-105561]

>  <%Inh, %>
12

$$$$
>  <molecule>
O=C(Nc1n[nH]c2cc(-c3ccsc3)ccc12)C1CC1 [SB-732932]

>  <%Inh, %>
4

$$$$

Given COc1ccc(Nc2nccc(N3CCC(NC(=O)C(C)c4ccc(Cl)cc4)CC3)n2)cc1 (stereo not shown) [GSK1379812] , state its recorded %Inh. 6

`CC(=O)c1c(C)c2cnc(Nc3ccc(N4CCNCC4)cn3)nc2n(C2CCCC2)c1=O` ? 15

COc1nccc(-c2c(-c3ccc(F)cc3)ncn2CCCN2CCOCC2)n1 [SB-282852] ? 0

O=c1cc(N2CCOCC2)nc2n(Cc3cccc(Cl)c3Cl)c3ccccc3n12 [GSK2299009] ? 0

COc1ccc2cc(-c3nc(-c4ccccc4C(C)C)[nH]c3-c3ccncc3)ccc2c1 [SB-660566] ? 0

Cc1ccc(NC(=O)Nc2ccccc2F)cc1-c1ccc(C(=O)Nc2ccncc2)cc1 [GSK1398477] ? 12

`CNCc1ccc2nc(NC(=O)c3ccc(C(C)(C)C)cc3)cn2c1` ? 7

Cc1ccc(NC(=O)Nc2ccc(Cl)c(C(F)(F)F)c2)cc1-c1ccc(C(=O)Nc2ccncc2)cc1 [GSK1398470] ? 25

----------
# Tested on: FES
# conditionSet: concentration: 1 μM, replicates: in singlicate; n = 1
outcomeMeasure: %Inh (%)
Note: unit % is implicit; provide only the numeric part.

>  <compound>
CNc1nc(-c2ccc3c(N)n[nH]c3c2)cc(N2C[C@@H](C(=O)NC3CCCCC3)OC[C@H]2C)n1

>  <%Inh (%)>
0

$$$$
>  <compound>
CC(=O)c1cccc(NC(=O)NC2CCN(c3ccnc(Nc4ccc(F)cc4)n3)C2)c1 (stereo not drawn)

>  <%Inh (%)>
0

$$$$
>  <compound>
Cn1cncc1-c1cc2c(Nc3ccc(OCc4ccccc4)cc3)ncnc2cn1

>  <%Inh (%)>
0

$$$$

Given `Cc1c(Cn2c(C)c(C)n3c(=O)cc(N4CCOCC4)nc23)cccc1C(F)(F)F` , state its recorded %Inh. 0

`CCc1ccc(-c2ccc3c(c2)-c2n[nH]cc2S(=O)(=O)N3C)cc1` ? 2
